Reported in-use stability, Peptide [%] values follow for various sequences
- assay-method-text: HPLC-assay for in-use stability after reconstitution with 4.2% sodium hydrogen carbonate solution (Example 3, peptides SEQ ID NO 11-23)
- Type: physicochemical
- condition-notes: no excipients; 4h
Form entry: value (%) — number only.

query-sequence | in-use stability, Peptide [%] / %
NLDTLMTYV (listed as Homo sapiens) [NLGN4X-001, Neuroligin 4, X-linked peptide] | 100.5
GLWHHQTEV (listed as Homo sapiens) [NRCAM-001, Neuronal cell adhesion molecule peptide] | 100.2
TLGEFLKLDRERAKN (listed as Homo sapiens) [BIR-002, Baculoviral IAP repeat-containing 5 (survivin) peptide] | 101.4
ALWAWPSEL (listed as Homo sapiens) [BCA-002, Brevican tumour-associated peptide] | 100.1
AMTQLLAGV (listed as Homo sapiens) [TNC-001, Tenascin C peptide] | 100.4
TFSYVDPVITSISPKYG (listed as Homo sapiens) [MET-005, Met proto-oncogene peptide] | 100.7
LTFGDVVAV (listed as Homo sapiens) [FABP7-001] | 100.9

Next sequence, please.
[ask] Fill in reported in-use stability, Peptide [%] for this entry: TMLARLASA (listed as Homo sapiens) [CSP-001, Chondroitin sulfate proteoglycan 4 peptide]
[reply] 99.7

---

- assay-method-text: HPLC-assay for in-use stability after reconstitution with 4.2% sodium hydrogen carbonate solution (Example 3, peptides SEQ ID NO 11-23)
- Assay type: physicochemical
- condition-notes: no excipients; 2h
Ends that are not written are not given here.
readout-type: in-use stability, Peptide [%] (%)
State just the number; it will be interpreted in %.

query-sequence | in-use stability, Peptide [%] (%)
AIIDGVESV (listed as Homo sapiens) [PTP-003, Protein tyrosine phosphatase, receptor-type, Z polypeptide 1 peptide] | 100.4
KVFAGIPTV (listed as Homo sapiens) [PTP-005, Protein tyrosine phosphatase, receptor-type, Z polypeptide 1 peptide] | 99.9
AMTQLLAGV (listed as Homo sapiens) [TNC-001, Tenascin C peptide] | 100.0
NLDTLMTYV (listed as Homo sapiens) [NLGN4X-001, Neuroligin 4, X-linked peptide] | 99.9
GLWHHQTEV (listed as Homo sapiens) [NRCAM-001, Neuronal cell adhesion molecule peptide] | 99.8
KIQEILTQV (listed as Homo sapiens) [IGF2BP3-001] | 100.0
LTFGDVVAV (listed as Homo sapiens) [FABP7-001] | 100.5
ALWAWPSEL (listed as Homo sapiens) [BCA-002, Brevican tumour-associated peptide] | 99.9

[ask] Recall and state the measured in-use stability, Peptide [%] for TMLARLASA (listed as Homo sapiens) [CSP-001, Chondroitin sulfate proteoglycan 4 peptide] .
[reply] 99.2

[ask] Return in-use stability, Peptide [%] (reported value) for this sequence: SLWAGVVVL [CHI-001]
[reply] 102.2

[ask] State its in-use stability, Peptide [%]: TLGEFLKLDRERAKN (listed as Homo sapiens) [BIR-002, Baculoviral IAP repeat-containing 5 (survivin) peptide]
[reply] 100.6

[ask] Item TFSYVDPVITSISPKYG (listed as Homo sapiens) [MET-005, Met proto-oncogene peptide] : provide in-use stability, Peptide [%]
[reply] 100.3

---

- assay-method-text: HPLC-assay for in-use stability after reconstitution with 4.2% sodium hydrogen carbonate solution (Example 2, peptides SEQ ID NO 1-10)
- Type: physicochemical
- condition-notes: no excipients; 2 h after reconstitution
- Description: Resolubilization procedure: For clinical trials the above described formulation is dissolved in 700 μl sodium hydrogen carbonate (4.2%). Remove plastic cap from one vial. Unpack and remove sodium hydrogen carbonate (4.2%) from the refrigerator at least 30 min before resolubilization to bring them up to room temperature before injection. Prepare syringe and needle for reconstitution. […] Identity, purity and peptide content are determined by analytical RP-HPLC chromatography. […]
readout-type: in-use stability, peptide by HPLC-assay (%)
Lab book: enter the figure in %, no units written.

Here are 3 sequences together with their reported answers.
query-sequence | in-use stability, peptide by HPLC-assay [%]
SVASTITGV (listed as Homo sapiens) [ADF-001, Adipophilin tumour-associated peptide] | 102.4
YVDPVITSI (listed as Homo sapiens) [MET-001, c-met proto-oncogene tumour-associated peptide] | 99.2
LLGATCMFV (listed as Homo sapiens) [CCN-001, Cyclin D1 tumour-associated peptide] | 72.1

[ask] Write down in-use stability, peptide by HPLC-assay measured for item ALADGVQKV (listed as Homo sapiens) [APO-001, Apolipoprotein L1 tumour-associated peptide]
[reply] 97.4

[ask] Identify measured in-use stability, peptide by HPLC-assay corresponding to SQDDIKGIQKLYGKRS (listed as Homo sapiens) [MMP-001, Matrix metalloproteinase 7 tumour-associated peptide]
[reply] 97.1

[ask] Please supply the value of reported in-use stability, peptide by HPLC-assay for the item LAALPHSCL (listed as Homo sapiens) [RGS-001, RGS-5 tumour-associated peptide]
[reply] 77.8

[ask] Specify in-use stability, peptide by HPLC-assay for SVFAGVVGV (listed as Homo sapiens) [GUC-001, GUCY1A3 tumour-associated peptide] and stop.
[reply] 100.0

[ask] // Input: VMAGDIYSV (listed as Homo sapiens) [ADF-002, Adipophilin tumour-associated peptide] . Output its in-use stability, peptide by HPLC-assay only.
[reply] 100.0

[ask] Please report in-use stability, peptide by HPLC-assay for the following sequence: ALFDGDPHL (listed as Homo sapiens) [K67-001, KIAA0367 tumour-associated peptide]
[reply] 99.2
